biological target: Neu5Ac(a2-3)Gal6S(b1-4)[Fuc(a1-3)]GlcNAc; assay: glycan array binding signal (z-score within array); higher = stronger binding; settings: glycan notation: IUPAC condensed, linker removed
The sample as a whole holds a higher share of the strongest signals than the screen did.
Decide using glycan array binding signal (z-score): a value greater than or equal to -0.4 is met, a smaller one is not met.

For orientation, consider the following solved cases.
Request: Hi, just wondering whether KISKRILTGKK [NK11 (Sus scrofa)] shows glycan array binding signal (z-score) of -0.4 or higher.
Result: not met

Request: Record: AT1G73650(15) (Arabidopsis thaliana), F4HRY1 (protein) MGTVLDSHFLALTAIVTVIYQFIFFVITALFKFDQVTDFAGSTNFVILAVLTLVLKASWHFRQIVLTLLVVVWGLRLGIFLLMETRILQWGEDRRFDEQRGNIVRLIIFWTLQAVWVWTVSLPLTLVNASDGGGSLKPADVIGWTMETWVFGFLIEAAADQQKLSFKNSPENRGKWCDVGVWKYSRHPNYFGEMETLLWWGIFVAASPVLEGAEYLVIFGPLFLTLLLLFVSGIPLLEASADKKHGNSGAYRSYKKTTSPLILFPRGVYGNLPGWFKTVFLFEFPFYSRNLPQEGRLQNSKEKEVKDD
Result: not met

Request: Record: C-Reactive Protein (Homo sapiens), P02741 (protein) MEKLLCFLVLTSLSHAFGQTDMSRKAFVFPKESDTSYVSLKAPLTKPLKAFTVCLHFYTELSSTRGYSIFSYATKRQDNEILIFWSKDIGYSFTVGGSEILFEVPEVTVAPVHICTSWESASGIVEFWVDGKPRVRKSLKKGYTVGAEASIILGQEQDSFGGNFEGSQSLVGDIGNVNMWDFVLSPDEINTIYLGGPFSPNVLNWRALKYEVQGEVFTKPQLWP
Result: met

Request: Record: Glycodelin A (Homo sapiens), P09466 (protein) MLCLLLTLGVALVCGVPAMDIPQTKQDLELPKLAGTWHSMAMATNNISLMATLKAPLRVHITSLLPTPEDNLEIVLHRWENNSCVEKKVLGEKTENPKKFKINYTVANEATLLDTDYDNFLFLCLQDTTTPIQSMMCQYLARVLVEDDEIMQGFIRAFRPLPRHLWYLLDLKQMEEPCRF
Result: not met

Request: Record: OVGAL11 (Ovis aries), AAF64320 (protein) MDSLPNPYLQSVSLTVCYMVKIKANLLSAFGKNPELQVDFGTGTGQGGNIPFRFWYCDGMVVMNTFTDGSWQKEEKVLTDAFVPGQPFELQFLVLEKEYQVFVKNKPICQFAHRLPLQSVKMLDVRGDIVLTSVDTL
Result: met

Continuing:
Request: Hi, just wondering whether Tamarinin (protein) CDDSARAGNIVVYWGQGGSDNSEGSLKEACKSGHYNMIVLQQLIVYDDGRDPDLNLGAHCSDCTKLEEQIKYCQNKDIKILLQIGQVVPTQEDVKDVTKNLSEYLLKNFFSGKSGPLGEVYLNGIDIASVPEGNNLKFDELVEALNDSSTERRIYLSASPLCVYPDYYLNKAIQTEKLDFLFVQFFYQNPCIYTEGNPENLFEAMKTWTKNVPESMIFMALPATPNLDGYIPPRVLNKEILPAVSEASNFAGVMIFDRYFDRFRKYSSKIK shows glycan array binding signal (z-score) of -0.4 or higher.
Result: met
